Reported values of Ratio NADH/NADPH (U/mg) for individual entries
assay: KARI assay of purified S. exigua KARI and variants with NADH (Examples 6-9); assay type: biochemical; conditions: specific activity ratio

| Molecule | Ratio NADH/NADPH (U/mg) |
| --- | --- |
| S63M: Slackia KARI variant with residue S63 mutated to M (protein, UniProt D0WGK0 1-342, looked up, variant S63M) Ketol-acid reductoisomerase …: MSVKTKEKEMAVTILYEQDVDPKVIQGLKVGIIGYGSQGHAHALNLMDSGVDVRVGLREGSSMWKTAEEAGLKVTDMDTAAEEADVIMVLVPDEIQPKVYQEHIAAHLKAGNTLAFAHGFNIHYGYIVPPEDVNVIMCAPKGPGHIVRRQFTEGSGVPDLACVQQDATGNAWDIVLSYCWGVGGARSGIIKATFAEETEEDLFGEQAVLCGGLVELVKAGFETLTEAGYPPELAYFECYHEMKMIVDLMYESGIHFMNYSISNTAEYGEYYAGPKVINEQSREAMKEILKRIQDGSFAQEFVDDCNNGHKRLLEQREAINTHPIETTGAQIRSMFSWIKKED | 4 |
| Se1_KARI^LE9-his6: S. exigua KARI variant I95T (protein, UniProt D0WGK0 1-342, looked up, variant I95T, His6 tag, S. exigua KARI variant I95T) Ketol-acid reductoisomerase …: MSVKTKEKEMAVTILYEQDVDPKVIQGLKVGIIGYGSQGHAHALNLMDSGVDVRVGLREGSSSWKTAEEAGLKVTDMDTAAEEADVIMVLVPDETQPKVYQEHIAAHLKAGNTLAFAHGFNIHYGYIVPPEDVNVIMCAPKGPGHIVRRQFTEGSGVPDLACVQQDATGNAWDIVLSYCWGVGGARSGIIKATFAEETEEDLFGEQAVLCGGLVELVKAGFETLTEAGYPPELAYFECYHEMKMIVDLMYESGIHFMNYSISNTAEYGEYYAGPKVINEQSREAMKEILKRIQDGSFAQEFVDDCNNGHKRLLEQREAINTHPIETTGAQIRSMFSWIKKED | 0.58 |
| Se1_KARI^AC1: S. exigua KARI variant S63D, I95A (protein, UniProt D0WGK0 1-342, looked up, variant S63D I95A) Ketol-acid reductoisomerase …: MSVKTKEKEMAVTILYEQDVDPKVIQGLKVGIIGYGSQGHAHALNLMDSGVDVRVGLREGSSDWKTAEEAGLKVTDMDTAAEEADVIMVLVPDEAQPKVYQEHIAAHLKAGNTLAFAHGFNIHYGYIVPPEDVNVIMCAPKGPGHIVRRQFTEGSGVPDLACVQQDATGNAWDIVLSYCWGVGGARSGIIKATFAEETEEDLFGEQAVLCGGLVELVKAGFETLTEAGYPPELAYFECYHEMKMIVDLMYESGIHFMNYSISNTAEYGEYYAGPKVINEQSREAMKEILKRIQDGSFAQEFVDDCNNGHKRLLEQREAINTHPIETTGAQIRSMFSWIKKED | 0.5 |
| Se1_KARI^CD10-his6: S. exigua KARI variant Y35H (protein, UniProt D0WGK0 1-342, looked up, variant Y35H, His6 tag, S. exigua KARI variant Y35H) Ketol-acid reductoisomerase …: MSVKTKEKEMAVTILYEQDVDPKVIQGLKVGIIGHGSQGHAHALNLMDSGVDVRVGLREGSSSWKTAEEAGLKVTDMDTAAEEADVIMVLVPDEIQPKVYQEHIAAHLKAGNTLAFAHGFNIHYGYIVPPEDVNVIMCAPKGPGHIVRRQFTEGSGVPDLACVQQDATGNAWDIVLSYCWGVGGARSGIIKATFAEETEEDLFGEQAVLCGGLVELVKAGFETLTEAGYPPELAYFECYHEMKMIVDLMYESGIHFMNYSISNTAEYGEYYAGPKVINEQSREAMKEILKRIQDGSFAQEFVDDCNNGHKRLLEQREAINTHPIETTGAQIRSMFSWIKKED | 0.68 |
